test: Half-life period for the compound was determined; format: ADME
Parameter measured: half-life

Respond only with half-life recorded for Cc1cn([C@H]2C[C@H](O)[C@@H](COP(=O)(O)N(C)CCBr)O2)c(=O)[nH]c1=O
3.4 min

Respond only with half-life recorded for O=P(O)(OCC1CCCO1)On1nnc2ccccc21 (configuration not stated)
61 min

Respond only with half-life recorded for COP(=O)(OCC1CCCO1)N(C)CCO (configuration not stated)
1.6 min

Respond only with half-life recorded for Cc1cn([C@H]2C[C@H](O)[C@@H](COP(=O)(O)On3nnc4ccccc43)O2)c(=O)[nH]c1=O
164 min

Respond only with half-life recorded for Cc1cn([C@H]2C[C@H](O)[C@@H](COP(=O)(On3nnc4ccccc43)N(C)CCBr)O2)c(=O)[nH]c1=O (some centres not stated)
4.7 min

Respond only with half-life recorded for CN(CCBr)P(=O)(OCC1CCCO1)On1nnc2ccccc21 (configuration not stated)
7.4 min

Respond only with half-life recorded for CCN(CC)CC.Cc1cn([C@H]2C[C@H](O)[C@@H](COP(=O)(O)N(C)CCBr)O2)c(=O)[nH]c1=O
3.7 min
